ASSAY TEXT: MM1S cell viability effects, profiling panel, calcein-AM fluorescence, 48 h, basal (AID 1165);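 further: viability of MM1S multiple myeloma cells under basal unstimulated conditions; test concentration not given here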
EXPERIMENTAL SETUP: higher = more signal
Ranges used to classify z-score: low bin (below -2), mid bin (-2 to below -0.7), high bin (-0.7 or more)

Field: class (z-score) — entry: "C=C(COC)/C(=C/C[C@H](OC(=O)c1ccncc1)c1ccc(OCCO)cc1)c1cc(C(=O)OC)ccc1OC"
mid bin

Field: class (z-score) — entry: "CN(C)CCCC[C@@H]1NC(=O)[C@@H]2C[C@H](C(=O)NCCCCCCNC(=O)CS)[C@H](c3cccc(OCCO)c3)N2C1=O"
high bin

Field: class (z-score) — entry: "CCOC(=O)C1=C[C@@H](C(C)(C)C)N(S(=O)(=O)c2ccc(C)cc2)[C@H]1c1ccccc1Cl"
mid bin

Field: class (z-score) — entry: "COC(=O)[C@@]1(CCC(=O)OC(C)(C)C)N=C(c2ccc(OCCCO)cc2)O[C@H]1c1ccccc1CN=[N+]=[N-]"
low bin

Field: class (z-score) — entry: "CC(C)(C)OC(=O)CC[C@]1(C(N)=O)N=C(c2ccc(OCCCO)cc2)O[C@H]1c1ccccc1CN=[N+]=[N-]"
high bin

Field: class (z-score) — entry: "Cc1ccc(S[C@]2(C(=O)NCCCN(C)C)CC(=O)N(Cc3ccccc3Cl)[C@@H]2c2ccc(CO)cc2I)cc1"
low bin

Field: class (z-score) — entry: "C=C(C(=O)CC[C@@H](OC(C)=O)c1cccc(OCCO)c1)C(C)C"
mid bin

Field: class (z-score) — entry: "CN(C)C(=O)[C@]1(Cc2ccccc2)N=C(c2ccc(OCCCO)cc2)O[C@@H]1c1ccccc1"
mid bin

Field: class (z-score) — entry: CCCCCN1CC=CC23O[C@@H]4C=CCOC(=O)[C@@H]4[C@H]2C(=O)N(CCCCCO)[C@@H]3C1=O (some centres not stated)
high bin

Field: class (z-score) — entry: "CCOC(=O)C1=CC[C@@H](c2ccc(F)cc2)N(S(=O)(=O)c2ccc(C)cc2)[C@H]1c1ccc([N+](=O)[O-])cc1"
mid bin

Field: class (z-score) — entry: "[N-]=[N+]=NCc1ccccc1C[C@]1(C(=O)N2CCCCC2)N=C(c2ccc(OCCCO)cc2)O[C@H]1c1ccccc1"
low bin

Field: class (z-score) — entry: CCN(CC)c1ccc(N2CC=CC34O[C@@H]5C=CCOC(=O)[C@@H]5[C@H]3C(=O)N(CCO)[C@@H]4C2=O)cc1 (some centres not stated)
mid bin

Every entry's value here was drawn from PubChem BioAssay.
